Numbers sourced from PubChem BioAssay (NCI).

RUN_DESCRIPTION: NCI Yeast Anticancer Drug Screen. Data for the cln2 rad14 strain (AID 165);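 note: 0% = growth equal to vehicle treated cultures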
COND: S. cerevisiae cln2 rad14 strain, at 5.0 µM (retest, dose inferred, filed as 0.5)
The panel holds about 79,000 compounds, 15% with a hit somewhere; the sample as a whole holds those more often. Active and inactive are the calls of the source. Cut-off read from the data, not from the text of the source: active = growth inhibition above about 70%; inactive = the rest.
Classes used: 1 (active), -1 (inactive)

| MOLECULE | CAT |
| --- | --- |
| C/C(=N\NC(=S)N1CCCC1)c1cnccn1 | 1 |
| Cc1ccc2nc(C[n+]3cccc4ccccc43)ccc2c1 | 1 |
| OCC(O)C(O)C(O)C(O)c1cnn(-c2ccccc2)n1 (configuration not stated) | -1 |
| CCCNC(=O)C(=O)NNc1ccccc1 | -1 |
| N#C/C(=C1C=C/C(=N/O)C=C/1Cl)c1ccccc1 | -1 |
| Cc1cc(C(=O)c2ccccc2)ccc1O | -1 |
| CN(C)C(=S)NC(=S)Nc1ccc2ccccc2c1 | -1 |
| O=C(Nc1ccc(Cl)cc1)NS(=O)(=O)c1ccc2c(c1)CCC2 | -1 |
| O=C(Nc1ccc(Br)cc1)c1c(-c2ccccc2)c2ccc(O)cc2oc1=O | -1 |
| Oc1ccccc1C(Sc1nc2ccccc2s1)Sc1nc2ccccc2s1 | -1 |
| CCCCCCCCNC(=O)C(Cl)Cl | -1 |
| O=C1Nc2c(Cl)cc(Cl)cc2/C1=N/N=C/c1ccccc1O | -1 |
| O=[N+]([O-])c1ccc(-c2ccccc2Cl)c([N+](=O)[O-])c1 | -1 |
| O=C(CC1C=Cc2ccccc2N1C(=O)c1ccccc1)c1ccccc1 (configuration not stated) | -1 |
| CCCCCCCCCCCCCCC(O)C(=O)O (configuration not stated) | -1 |
| CCCCCCCCCCCCCC1=NCC(C)(C)N1 | -1 |
| Cc1ccc(S(=O)(=O)/C=C2\COc3ccccc3C2=O)cc1 | -1 |
| O=C(CBr)C1(Br)CCN(Cc2ccccc2)CC1 | -1 |
| CCCCCCC(C)S(=O)(=O)c1ccc(C)cc1 (configuration not stated) | -1 |
| O=c1[nH]c2c([N+](=O)[O-])cc(Cl)cc2nc1/C=C(\O)c1ccc2ccccc2c1 | -1 |
| CCOC(=O)C1SC(=S)N(C)C1=O (configuration not stated) | -1 |
| ClCCOCCOc1c(Cl)cc(Cl)c(Cl)c1Cl | -1 |
